B1: HDV Ribozyme (parent)
chain: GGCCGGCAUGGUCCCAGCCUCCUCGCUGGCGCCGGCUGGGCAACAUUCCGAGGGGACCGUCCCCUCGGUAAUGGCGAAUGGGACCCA

- Variants of: B1
- method-description: self-cleavage, relative activity (ratio to wild type); higher = more cleavage; co-transcriptional

item-sequence | self-cleavage
GGCCGGCAUGGUCCCAGCCUCCUCGCUGGCGCCGGCUGGGCAACAUUCCGAGGGGACCGUCCCCUCGGUAAUGGCGCUUGGGACCCA | 0.208
GGCCGGCGUGGUCCCAGCCUCCUCGCUGGCGCCGGCUGGGCAACAUUCCGAGGGGACCGUCCCCUCGGUAAUGGCGACUGGGACCCA | 0.166
GGCCGGCAUGGUCCCAGCCUCCUCGCUGGUGCCCGCUGGGCAACAUUCCGAGGGGACCGUCCCCUCGGUAAUGGCGAAUGGGACCCA | 0.0923
GGCCGGCAUGGUCCCAGCCUCCUCGCUGGCGACGGCUGGGCAACAUUCCGAGGGGACCGUCCCCUCGGUAAUGGCGCAUGGGACCCA | 0.219
GGCCGGCAUGGCCCCAGCCUCCUCGCUGGCGCCGGCUGGGCAACAUUCCGAGGGGACCGUCGCCUCGGUAAUGGCGAAUGGGACCCA | 0.123
GGCCGGCAUGGCCCCAGCCUCCUCGCUGGCGCCGGCUGGGCAACAUUCCGAGGGGACCGUCCCCUCGGUAAUGGCGAAUGUGACCCA | 0
GGCCGGCAUGGUCCCAGCCUCCUCGCUGGCGCCGGCUGGGCAACAUUCCGACGGGACCGUCCCCUCGGUAAUGGCGAAAGGGACCCA | 0.906
GGCCGGCAUGGUCCCAGACUCCUCGCUGGCGCCGGCUGGGCAACAUUCCGAGGGGACCGUCCCCUCGGUGAUGGCGAAUGGGACCCA | 0
GGCCGGCAUGGUCCCAGCCUCCUCGCUGGCGCCGGCGGGGCAACAUUCCGAGGGGACCGUCCCCUCGGUAAUGGCGAAUGGGACACA | 0.0875
GGCCGGCAUGGUCCCAGCCUCCUCGCUGGCGCCGGCUGGGCAAAAUCCCGAGGGGACCGUCCCCUCGGUAAUGGCGAAUGGGACCCA | 0.831
GGCCGGCAUGGUCCCAGCCUCCUCGCUGGCGCCGGCUGGGCAACAUUCCGAGCGGACCGUCCCCUCGGUAAUGUCGAAUGGGACCCA | 0.379
GGCCAGCAUGGUCCCAGCCUCCUCGCUGGCGCCGGCUGGGCCACAUUCCGAGGGGACCGUCCCCUCGGUAAUGGCGAAUGGGACCCA | 0.135

Cited source for all entries: the RNAGym collection of RNA variant scans (doi:10.7554/elife.80360)
